Target: Aminopeptidase N (Mus musculus, UniProt P97449)
Sequence (P97449 whole entry): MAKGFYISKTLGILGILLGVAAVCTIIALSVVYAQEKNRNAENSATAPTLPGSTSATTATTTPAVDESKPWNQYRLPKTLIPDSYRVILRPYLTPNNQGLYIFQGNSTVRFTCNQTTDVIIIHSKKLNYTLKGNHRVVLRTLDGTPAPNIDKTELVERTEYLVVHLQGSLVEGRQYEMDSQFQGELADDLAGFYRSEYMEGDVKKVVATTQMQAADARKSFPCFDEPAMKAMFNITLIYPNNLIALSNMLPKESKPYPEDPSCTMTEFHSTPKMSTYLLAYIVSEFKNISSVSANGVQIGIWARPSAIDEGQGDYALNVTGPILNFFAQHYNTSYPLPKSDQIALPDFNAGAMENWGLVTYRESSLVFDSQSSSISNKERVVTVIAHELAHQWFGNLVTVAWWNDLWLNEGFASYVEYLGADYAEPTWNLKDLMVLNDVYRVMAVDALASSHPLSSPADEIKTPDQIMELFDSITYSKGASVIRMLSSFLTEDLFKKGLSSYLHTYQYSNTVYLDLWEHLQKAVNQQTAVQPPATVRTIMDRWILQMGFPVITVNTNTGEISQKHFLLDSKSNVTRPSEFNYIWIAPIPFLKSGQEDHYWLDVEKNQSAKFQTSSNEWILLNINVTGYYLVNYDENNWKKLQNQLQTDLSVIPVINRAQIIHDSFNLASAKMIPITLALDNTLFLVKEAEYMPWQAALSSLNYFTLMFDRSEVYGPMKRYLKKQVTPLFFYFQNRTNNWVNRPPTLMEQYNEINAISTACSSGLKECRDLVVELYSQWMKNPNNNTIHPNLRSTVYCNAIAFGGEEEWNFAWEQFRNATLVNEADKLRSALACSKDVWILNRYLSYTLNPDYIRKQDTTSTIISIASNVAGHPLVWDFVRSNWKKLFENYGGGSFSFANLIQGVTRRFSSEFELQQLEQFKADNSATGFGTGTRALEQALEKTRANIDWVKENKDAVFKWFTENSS
Reported values of Ki for individual entries
Respond numerically; units are nM and should not be typed.

>  <Compound>
Cl.NC1CCc2cccc(-c3ccccc3)c2CC1=O (configuration not stated)

>  <Ki, nM>
10

$$$$

[in] Supply recorded Ki for NC1CCc2c(Br)ccc(-c3ccccc3)c2CC1=O (configuration not stated) here.
[out] 0.2
